test: Human HepG2 cell viability assay in 384 well format; format: toxicity, cell-based; design: dose 125 nL, time 70.5 hour; concentration not given beside the values; settings: HepG2 cells, read-out: Inhibition
Quantity name: cytotoxicity at 70.5 h (%)
Numeric answer only, unit % assumed.

The cases that follow already have their cytotoxicity at 70.5 h on record.
Compound	cytotoxicity at 70.5 h [%]
CN1CCOC(C(=O)Nc2nc(-c3ccc(Cl)cc3)n[nH]2)C1 (stereo unspecified)	4.4
CCN1CCC(CC(=O)N(C)CC(=O)c2ccc(O)cc2)CC1	-8.66
NC(=O)C1CCCN1Cc1cccc(NC(=O)c2ccsc2)c1 (stereo unspecified)	-11.3
CN(CC1(CO)CCC1)C(=O)c1cc(COc2ccccc2F)[nH]n1	-3.92
CCN1C(=O)C[C@@H]2[C@@H]1CCN2S(=O)(=O)Cc1ccc(C)cc1	1.97
COCC1CN(c2ccc(C)nn2)Cc2cnn(C)c21 (stereo unspecified)	-7.14
Cc1noc(CS(=O)(=O)C(C)C(=O)N(C)c2ccccc2)n1 (stereo unspecified)	-23.3
CCc1csc(C2CCCN(C(=O)c3ccncc3)C2)n1 (stereo unspecified)	-5.33
Cc1cccc(C)c1NC(=O)NCC1CCCN(C2CCOCC2)C1 (stereo unspecified)	-8.66
O=C(NCc1cc2n(n1)CCCNC2)C1(c2ccccc2)CCCCC1	0.103

Now examine the next entry.
Give cytotoxicity at 70.5 h for CN1CCC(N(Cc2ccco2)S(=O)(=O)c2ccc(Br)cc2Cl)CC1
1.77
